target: Cannabinoid receptor 1 (Homo sapiens); assay: Antagonist activity at recombinant human CB1 receptor expressed in HEK293 cell membranes assessed as inhibition of CP55940-induced [35S]GTPgammaS binding preincubated for 1 hr followed by CP55940 addition and subsequent incubation with [35S]GTPgammaS measured after 30 mins by scintillation spectrometry
experimental.endpoint: IC50 (nM)
Expressed in nM, but write only the number.

**Q:** # get_value(readout='IC50', item= Cc1c(C(=O)N[C@H]2CCC[C@H](O)C2)nc(-c2ccc(Cl)cc2Cl)n1-c1ccc(OS(=O)(=O)CCC(F)(F)F)cc1 )
**A:** 1.26

**Q:** # get_value(readout='IC50', item= Cc1c(C(=O)N[C@H]2CCCC[C@H]2N)nc(-c2ccc(Cl)cc2Cl)n1-c1ccc(OS(=O)(=O)CCC(F)(F)F)cc1 )
**A:** 6.3

* * *

pIC50 values for the compounds below.
target: Cannabinoid receptor 1 (Homo sapiens, UniProt P21554); assay: Antagonist activity at recombinant human CB1 receptor expressed in HEK293 cell membranes assessed as inhibition of CP55940-induced [35S]GTPgammaS binding preincubated for 1 hr followed by CP55940 addition and subsequent incubation with [35S]GTPgammaS measured after 30 mins by scintillation spectrometry
Sequence (P21554 whole entry): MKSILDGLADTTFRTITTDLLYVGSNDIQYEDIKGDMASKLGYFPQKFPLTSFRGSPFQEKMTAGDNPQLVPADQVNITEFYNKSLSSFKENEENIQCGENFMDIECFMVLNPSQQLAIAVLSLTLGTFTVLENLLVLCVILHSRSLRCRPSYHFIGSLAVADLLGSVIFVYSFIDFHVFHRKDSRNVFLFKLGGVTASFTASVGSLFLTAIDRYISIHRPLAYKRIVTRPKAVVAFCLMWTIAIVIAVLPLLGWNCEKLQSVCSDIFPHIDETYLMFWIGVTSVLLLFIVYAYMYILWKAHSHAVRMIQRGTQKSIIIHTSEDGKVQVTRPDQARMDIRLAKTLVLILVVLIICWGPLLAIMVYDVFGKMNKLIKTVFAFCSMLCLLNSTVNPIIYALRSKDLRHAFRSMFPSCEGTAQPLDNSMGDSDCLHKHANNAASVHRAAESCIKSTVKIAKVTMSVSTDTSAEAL
Reminder that pIC50 is minus the log10 of a molar concentration.

{"smiles.record": "Cc1c(C(=O)NN2CCCCC2)nc(-c2ccc(Cl)cc2Cl)n1-c1ccc(OCCC(F)(F)F)cc1", "experimental.endpoint": "pIC50", "measured.value": 8.30}
{"smiles.record": "Cc1c(C(=O)N[C@@H]2CCCC[C@@H]2O)nc(-c2ccc(Cl)cc2Cl)n1-c1ccc(OS(=O)(=O)CCC(F)(F)F)cc1", "experimental.endpoint": "pIC50", "measured.value": 8.80}

# input for lookup
**Q:** # get_value(readout='pIC50', item= Cc1c(C(=O)NN2CCCCC2)nc(-c2ccc(Cl)cc2Cl)n1-c1ccc(OS(=O)(=O)CCC(C)(C)C)cc1 )
**A:** 8.70
